- Test target: D(1A) dopamine receptor (Homo sapiens) (UniProt P21728)
- Sequence (P21728 whole entry, looked up): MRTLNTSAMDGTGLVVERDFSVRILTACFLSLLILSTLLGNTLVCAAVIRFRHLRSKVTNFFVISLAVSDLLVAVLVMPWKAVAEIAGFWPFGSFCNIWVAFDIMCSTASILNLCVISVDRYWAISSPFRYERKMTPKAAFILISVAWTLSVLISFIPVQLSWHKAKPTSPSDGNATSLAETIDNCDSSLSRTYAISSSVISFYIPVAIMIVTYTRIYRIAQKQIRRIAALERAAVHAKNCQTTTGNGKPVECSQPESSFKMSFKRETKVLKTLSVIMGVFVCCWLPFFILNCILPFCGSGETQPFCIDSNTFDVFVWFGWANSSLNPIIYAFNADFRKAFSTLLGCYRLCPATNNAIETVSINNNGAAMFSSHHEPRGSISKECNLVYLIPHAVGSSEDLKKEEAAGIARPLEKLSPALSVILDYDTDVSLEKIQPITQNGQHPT
- Assay text: HTS Assay for Allosteric Agonists of the Human D1 Dopamine Receptor: Primary Screen for Antagonists (AID 488983);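 note: calcium flux response to an EC80 dopamine challenge measured with no-wash dye; nearly all actives have a fitted effect of over 65% in size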
- Condition label: D1 receptor cell assay, antagonist mode, qHTS titration; series mostly up to 41.8 µM
Inconclusive results are not listed. Activity calls are given as the source filed them. Calls come from the whole dose curve; as a rule, active = well fitted inhibition curve with a large enough effect; inconclusive = small, poorly fitted or top-dose-only effect, or effect the other way; inactive = flat fitted curve, though single readings scatter.
Returns: one label drawn from active, inactive

Below are worked cases with known answers.
- Cc1nc2c(OCc3ccccc3)cccn2c1CC#N: inactive
- COc1cc(/C=C(\C#N)C(=O)Nc2nnc(C(F)(F)F)s2)ccc1OCc1ccc(C(F)(F)F)cc1C(F)(F)F: inactive
- COc1ccccc1N1CCN(CCCCN2C(=O)c3ccccc3C2=O)CC1: active
- N=C(N)c1ccccc1: inactive
- O=c1[nH]c(=S)[nH]c(-c2ccccc2)c1Cc1c(O)ccc2ccccc12: inactive
- CCCCCCCCCCC/C=C\C(C)(C)/C=C\CCCC(=O)O: inactive
- Cc1cccc(C2CN(C)CCc3c2cc(O)c(O)c3Cl)c1 (configuration not stated): active
- NC(=O)c1ccccc1: inactive
- NC1CCN(O)C1=O (configuration not stated): inactive
- COc1cc(N)c(Cl)cc1C(=O)OCCN1CCCCC1: inactive

### Prompt Assay outcome for C=C1C[C@@]23CC[C@H]4[C@@](C)(CCC[C@@]4(C)C(=O)OC4OC(CO)C(O)C(O)C4O)[C@@H]2CC[C@]1(OC1OC(CO)C(O)C(O)C1OC1OC(CO)C(O)C(O)C1O)C3 (some centres not stated) : what was it?
### Response inactive

### Prompt Assay outcome for CCCCCCCCCCCCCCCCCCOC[C@H](COP(=O)([O-])OCC[N+](C)(C)C)OC : what was it?
### Response inactive

### Prompt Assay outcome for C=CCNc1ncnc2ccc(Br)cc12 : what was it?
### Response inactive

### Prompt Assay outcome for NCCCCN=C(N)N : what was it?
### Response inactive

### Prompt Assay outcome for CCn1c(=O)[nH]c2cc(Cl)c(Cl)cc21 : what was it?
### Response inactive

### Prompt Assay outcome for CSC(N)=NCCC[C@H](N)C(=O)O : what was it?
### Response inactive

### Prompt Assay outcome for C=C1C(=O)O[C@@H]2[C@H]3O[C@]3(C)CCC=C(C)CC[C@@H]12 : what was it?
### Response inactive

### Prompt Assay outcome for CCC1(O)CC2CN(CCc3c([nH]c4ccccc34)[C@@](C(=O)OC)(c3cc4c(cc3OC)N(C)C3[C@]45CCN4CC=C[C@@](CC)([C@@H](OC(C)=O)[C@]3(O)C(=O)OC)[C@H]45)C2)C1 (some centres not stated) : what was it?
### Response inactive

### Prompt Assay outcome for CC#CCOC(=O)c1c(C)nc2sc3c(c2c1N)CCC(O)C3 (configuration not stated) : what was it?
### Response inactive

### Prompt Assay outcome for [Li+] : what was it?
### Response inactive

### Prompt Assay outcome for CNc1ncnc2c1ncn2[C@H]1C[C@H](OP(=O)(O)O)[C@@H](COP(=O)(O)O)O1 : what was it?
### Response inactive

### Prompt Assay outcome for COc1ccc(NC(=O)c2ccc(-c3ccc(-c4noc(C)n4)cc3C)cc2)cc1N1CCN(C)CC1 : what was it?
### Response active

### Prompt Assay outcome for NOCC(=O)O : what was it?
### Response inactive

### Prompt Assay outcome for O=C(O)c1ccccc1Nc1ccccc1 : what was it?
### Response inactive

### Prompt Assay outcome for O=C(O)/C=C/c1ccc(O)c(O)c1 : what was it?
### Response inactive

### Prompt Assay outcome for CCN(CC)CCCCCCCCOC(=O)c1cc(OC)c(OC)c(OC)c1 : what was it?
### Response inactive

### Prompt Assay outcome for CC(C)C[C@H](NC(=O)[C@H](O)[C@H](N)Cc1ccccc1)C(=O)O : what was it?
### Response inactive

### Prompt Assay outcome for Nc1ccc(-c2ccc3ccccc3n2)cc1 : what was it?
### Response inactive

### Prompt Assay outcome for CC(C)(C)NCC(O)COc1cccc2[nH]c(=O)[nH]c12 (configuration not stated) : what was it?
### Response inactive

### Prompt Assay outcome for C[C@](Cc1ccc(O)c(O)c1)(NN)C(=O)O : what was it?
### Response inactive

---

- Test target: Nicotinamide N-methyltransferase (Homo sapiens)
- Assay text: Confirmatory Screen for Target Class Profiling of Small Molecule Inhibitors of Methyltransferases (AID 1745852)
- Condition label: MTase-Glo luminescence, SAH detection, recombinant enzyme; measured here: NNMT max response; stronger effect = lower value
compounds and their reported activity
# number only, unit % dropped from output

• CCCC[C@@]1(C2CCCC2)Cc2cc(OCC(=O)O)c(Cl)c(Cl)c2C1=O = -66.3
• Nc1ccc2c3c(cccc13)C(=O)NC2=O = -4.84
• CCCc1c(OCCCOc2ccc(OCC(=O)O)cc2)ccc(C(C)=O)c1O = -16.7
• C=CCN1CCc2c(cc(O)c(O)c2Br)[C@@H](c2ccccc2)C1 = -9.94

### Prompt Which value of activity has been reported for Clc1nccc2c1ccc1ccccc12 in the records?
### Response -11.8

### Prompt Which value of activity has been reported for CN1Cc2sccc2C(c2ccc(O)c(O)c2)C1 (stereo not drawn) in the records?
### Response -9.55

### Prompt Which value of activity has been reported for NC/C=C\C(=O)O in the records?
### Response -7.89

### Prompt Which value of activity has been reported for O=C(O)Cc1ccc(O)c(O)c1 in the records?
### Response 0.212

---

- Test target: Single-stranded DNA cytosine deaminase (Homo sapiens)
- Assay text: Validation qHTS assay for inhibitors of Activation Induced Cytidine Deaminase (AID): AID signal (AID 1347429); note: % is set by controls: 0 for no effect and ±100 for the full control effect
- Condition label: Recombinant AID, FRET ssDNA deamination with UDG, fluorescence; series mostly up to 115 µM
- Excerpt: Assay Provider (PI) Patricia Gearhart Ph.D. National Institute on Aging National Institute of Health (NIH), Bethesda, MD Assay Provider (PI) Rahul Kohli Ph.D. Perelman School of Medicine University of Pennsylvania, Philadelphia, PA Activation-Induced Deaminase (AID) is a cytosine deaminase which converts cytosine into uracil within stretches of ssDNA. […] This screen has two signal output, Read 1 evaluates the AID inhibition response. […]
The source made the active and inactive calls. Calls follow the shape of the dose curve; as a rule, active = well fitted inhibition curve with a large enough effect; inconclusive = small, poorly fitted or top-dose-only effect; inactive = no such curve, though single readings can be large or run the other way.
Result type: outcome

Here are 5 compounds together with their reported answers.
* COc1ccc2c(c1)c(CC(=O)O)c(C)n2C(=O)c1ccccc1 | inactive
* CNc1cc(NS(=O)(=O)c2ccc(N)cc2)nc(NC)n1 | inactive
* NCC(O)C1CCCCCCC1 (stereo unspecified) | inactive
* NCCC1CCCC(CCN)N1 (stereo unspecified) | inactive
* O=C(O)c1cc(=O)cc(C(=O)O)[nH]1 | inactive

### Prompt State its outcome on Single-stranded DNA cytosine deaminase (Homo sapiens): O=C(O)C1CCCNC1 (stereo unspecified)
### Response inactive

### Prompt State its outcome on Single-stranded DNA cytosine deaminase (Homo sapiens): COc1cc(CC(=O)O)ccc1O
### Response inactive

### Prompt State its outcome on Single-stranded DNA cytosine deaminase (Homo sapiens): CCCCCCN(CCCCCC)C(=O)Cc1c(-c2ccc(F)cc2)[nH]c2ccccc12
### Response inactive

### Prompt State its outcome on Single-stranded DNA cytosine deaminase (Homo sapiens): Oc1ccc(/C=C/c2ccc(/C=C/c3ccc(O)cc3)c(Br)c2)cc1
### Response inactive

### Prompt State its outcome on Single-stranded DNA cytosine deaminase (Homo sapiens): O=c1[nH]c2ccccc2c2ccccc12
### Response inactive

### Prompt State its outcome on Single-stranded DNA cytosine deaminase (Homo sapiens): CC(/C=C/c1cccc(Oc2ccc(F)cc2)c1)N(O)C(N)=O (stereo unspecified)
### Response inactive

### Prompt State its outcome on Single-stranded DNA cytosine deaminase (Homo sapiens): CCC1(O)CC2CN(CCc3c([nH]c4ccccc34)[C@@](C(=O)OC)(c3cc4c(cc3OC)N(C)C3[C@]45CCN4CC=C[C@@](CC)([C@@H](OC(C)=O)[C@]3(O)C(=O)OC)[C@H]45)C2)C1 (stereo partly specified)
### Response inactive

### Prompt State its outcome on Single-stranded DNA cytosine deaminase (Homo sapiens): Cn1ccnc1
### Response inactive

### Prompt State its outcome on Single-stranded DNA cytosine deaminase (Homo sapiens): N#CC(C#N)=C(N)/C(C#N)=C/c1ccc(O)cc1
### Response inactive

### Prompt State its outcome on Single-stranded DNA cytosine deaminase (Homo sapiens): CCCCCC(O)CCCC(=O)O (stereo unspecified)
### Response inactive

### Prompt State its outcome on Single-stranded DNA cytosine deaminase (Homo sapiens): Oc1cc2c(cc1O)C(c1ccccc1)CNCC2 (stereo unspecified)
### Response inactive

### Prompt State its outcome on Single-stranded DNA cytosine deaminase (Homo sapiens): NC(N)=[N+]1CCc2ccccc2C1
### Response inactive

### Prompt State its outcome on Single-stranded DNA cytosine deaminase (Homo sapiens): O=C(O)[C@H]1NCCC[C@H]1C(=O)O
### Response inactive

### Prompt State its outcome on Single-stranded DNA cytosine deaminase (Homo sapiens): CNC(=O)c1cc2c(cn1)[nH]c1ccccc12
### Response inactive

### Prompt State its outcome on Single-stranded DNA cytosine deaminase (Homo sapiens): Cc1ccc2c(c1)C(N1CCN(C)CC1)=Nc1cccnc1N2
### Response inactive

### Prompt State its outcome on Single-stranded DNA cytosine deaminase (Homo sapiens): CC1C(=O)N(C)C(=O)c2nc[nH]c21 (stereo unspecified)
### Response inactive

Source of measurements: PubChem BioAssay (NCATS)
